Reference source for all entries: the RNAGym collection of RNA variant scans (doi:10.1073/pnas.2313332121)

B1: TPR t1 (parent)
chain: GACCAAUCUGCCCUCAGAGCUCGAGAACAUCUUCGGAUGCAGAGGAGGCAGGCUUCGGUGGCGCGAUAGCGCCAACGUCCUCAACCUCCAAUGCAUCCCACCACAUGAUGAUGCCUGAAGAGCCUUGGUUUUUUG

Variants of: B1
Test: polymerase ribozyme fitness, log enrichment relative to wild type (log ratio); higher = more active; in vitro selection for triplet polymerase activity
Listed below: polymerase ribozyme fitness (log ratio) values for each entry.
I'd appreciate a reply containing only the number, no unit.

Study these solved cases before continuing.
Form: variant = C15A G47U C64U C123U ; polymerase ribozyme fitness (log ratio) = -2.43

Form: variant = A90C C104A ; polymerase ribozyme fitness (log ratio) = -3.78

Form: variant = C3G C97U ; polymerase ribozyme fitness (log ratio) = -2.53

Form: variant = A111U G113A ; polymerase ribozyme fitness (log ratio) = -4.49

Form: variant = G52U G77U A90U A121U U130A ; polymerase ribozyme fitness (log ratio) = -0.805

New cases:
Form: variant = A43C U78A C82A ; polymerase ribozyme fitness (log ratio) = -3.68

Form: variant = G36C U55A U131A ; polymerase ribozyme fitness (log ratio) = -0.527
